Test system: Staphylococcus epidermidis
Assay Protocol: Minimum inhibitory concentration against 533 Staphylococcus epidermidis
Format: functional
Listed here: items and their measured MIC.
Answer format: numeric, µg/mL implied, no suffix.

Memo: CN[C@H](CC(C)C)C(=O)N[C@H]1C(=O)N[C@@H](CC(N)=O)C(=O)N[C@H]2C(=O)N[C@H]3C(=O)N[C@H](C(=O)N[C@H](C(=O)NC4C5CC6CC(C5)CC4C6)c4cc(O)cc(O)c4-c4cc3ccc4O)[C@H](O)c3ccc(cc3)Oc3cc2cc(c3O)Oc2ccc(cc2Cl)[C@H]1O (some centres undefined) , reported MIC: 16

Please turn your attention to the following entry.
Memo: CN[C@H](CC(C)C)C(=O)N[C@H]1C(=O)N[C@@H](CC(N)=O)C(=O)N[C@H]2C(=O)N[C@H]3C(=O)N[C@H](C(=O)N[C@H](C(=O)NC4C5CC6CC(C5)CC4C6)c4cc(O)cc(O)c4-c4cc3ccc4O)[C@H](O)c3ccc(cc3)Oc3cc2cc(c3O)Oc2ccc(cc2)[C@H]1O (some centres undefined) , reported MIC: 16
